Test system: Pseudomonas aeruginosa
measurement description: MIC against clinical isolates
Type: cell-based
experimental setup: clinical isolate S-3; unit assumed
recorded metric: MIC (µg/mL)

compound: CCCCCCCCN1CCN(C(=O)N[C@@H](C(=O)N[C@@H]2C(=O)N3[C@@H]2SC(C)(C)[C@@H]3C(=O)O)c2ccccc2)C(=O)C1=O (single isomer, unassigned) [compound 47]
relation: =
observed result: 50
--
compound: CC1(C)S[C@@H]2[C@H](NC(=O)[C@H](N)c3ccccc3)C(=O)N2[C@H]1C(=O)O [Sodium Ampicillin, SodiumAmpicillin, reference compound]
relation: >
observed result: 200
--
compound: CCCCCCCCN1CCN(C(=O)N[C@@H](C(=O)N[C@@H]2C(=O)N3[C@@H]2SC(C)(C)[C@@H]3C(=O)O)c2ccccc2)C(=O)C1 [compound 16]
relation: =
observed result: 50
--
compound: CCN1CCN(C(=O)N[C@@H](C(=O)N[C@@H]2C(=O)N3[C@@H]2SC(C)(C)[C@@H]3C(=O)O)c2ccccc2)C(=O)C1=O [compound 36]
relation: =
observed result: 25
--
compound: CC1(C)S[C@@H]2[C@H](NC(=O)C(C(=O)O)c3ccccc3)C(=O)N2[C@H]1C(=O)O (some centres unmarked) [Sodium Carbenicillin, SodiumCarbenicillin, reference compound]
relation: =
observed result: 200

====

System: Pseudomonas aeruginosa
measurement description: MIC against clinical isolates
Type: cell-based
experimental setup: clinical isolate GN 2565; unit assumed
MIC by entry:
recorded metric: MIC (µg/mL)

molecule: CCCN1CCN(C(=O)N[C@@H](C(=O)N[C@@H]2C(=O)N3[C@@H]2SC(C)(C)[C@@H]3C(=O)O)c2ccccc2)C(=O)C1=O (single isomer, unassigned)
recorded metric: MIC
result unit: µg/mL
relation: =
observed result: 12.5

molecule: CCN1CCN(C(=O)N[C@@H](C(=O)N[C@@H]2C(=O)N3[C@@H]2SC(C)(C)[C@@H]3C(=O)O)c2ccccc2)C(=O)C1=O
recorded metric: MIC
result unit: µg/mL
relation: =
observed result: 25

molecule: CCCCCCCCN1CCN(C(=O)N[C@@H](C(=O)N[C@@H]2C(=O)N3[C@@H]2SC(C)(C)[C@@H]3C(=O)O)c2ccccc2)C(=O)C1=O (single isomer, unassigned)
recorded metric: MIC
result unit: µg/mL
relation: =
observed result: 25

molecule: CN1CCN(C(=O)N[C@@H](C(=O)N[C@@H]2C(=O)N3[C@@H]2SC(C)(C)[C@@H]3C(=O)O)c2ccccc2)C(=O)C1=O (single isomer, unassigned)
recorded metric: MIC
result unit: µg/mL
relation: =
observed result: 25

molecule: CC1(C)S[C@@H]2[C@H](NC(=O)C(c3ccccc3)S(=O)(=O)O)C(=O)N2[C@H]1C(=O)O (some centres unmarked) [Sodium Sulbenicillin, SodiumSulbenicillin, reference compound]
recorded metric: MIC
result unit: µg/mL
relation: =
observed result: 100

molecule: CC(=O)OCC1=C(C(=O)O)N2C(=O)C(NC(=O)C(NC(=O)N3CCN(C)C(=O)C3=O)c3ccccc3)C2SC1 (single isomer, unassigned)
recorded metric: MIC
result unit: µg/mL
relation: =
observed result: 100

molecule: Cc1nnc(SCC2=C(C(=O)O)N3C(=O)C(NC(=O)C(NC(=O)N4CCN(C)C(=O)C4=O)c4ccccc4)C3SC2)s1 (single isomer, unassigned)
recorded metric: MIC
result unit: µg/mL
relation: =
observed result: 100

molecule: CCCCCCCCN1CCN(C(=O)N[C@@H](C(=O)N[C@@H]2C(=O)N3[C@@H]2SC(C)(C)[C@@H]3C(=O)O)c2ccccc2)CC1=O
recorded metric: MIC
result unit: µg/mL
relation: =
observed result: 50

molecule: CC(=O)OCC1=C(C(=O)O)N2C(=O)[C@@H](NC(=O)[C@H](N)c3ccccc3)[C@H]2SC1 [Sodium Cephaloglycin, SodiumCephaloglycin, reference compound]
recorded metric: MIC
result unit: µg/mL
relation: >
observed result: 200

molecule: CCCCCCCCN1CCN(C(=O)N[C@@H](C(=O)N[C@@H]2C(=O)N3[C@@H]2SC(C)(C)[C@@H]3C(=O)O)c2ccccc2)C(=O)C1
recorded metric: MIC
result unit: µg/mL
relation: =
observed result: 12.5

molecule: CCN1CCN(C(=O)NC(C(=O)NC2C(=O)N3C(C(=O)O)=C(CSc4nnnn4C)CSC23)c2ccccc2)C(=O)C1=O (centres unmarked)
recorded metric: MIC
result unit: µg/mL
relation: =
observed result: 50

====

System: Escherichia coli
measurement description: MIC against clinical isolates
Format: cell-based
experimental setup: clinical isolate GN 3481; unit assumed
recorded metric: log10 of MIC (log10 of the value in µg/mL)

compound: CCCCCCN1CCN(C(=O)N[C@@H](C(=O)N[C@@H]2C(=O)N3[C@@H]2SC(C)(C)[C@@H]3C(=O)O)c2ccccc2)C(=O)C1=O (single isomer, unassigned)
log10 of MIC: 0.50
//
compound: CC(=O)OCC1=C(C(=O)O)N2C(=O)C(NC(=O)C(NC(=O)N3CCN(C)C(=O)C3=O)c3ccccc3)C2SC1 (single isomer, unassigned)
log10 of MIC: 0.80
//
compound: CCN1CCN(C(=O)N[C@@H](C(=O)N[C@@H]2C(=O)N3[C@@H]2SC(C)(C)[C@@H]3C(=O)O)c2ccccc2)C(=O)C1=O
log10 of MIC: 0.50
//
compound: Cc1nnc(SCC2=C(C(=O)O)N3C(=O)C(NC(=O)C(NC(=O)N4CCN(C)C(=O)C4=O)c4ccccc4)C3SC2)s1 (single isomer, unassigned)
log10 of MIC: 0.80
//
compound: CCCCN1CCN(C(=O)N[C@@H](C(=O)N[C@@H]2C(=O)N3[C@@H]2SC(C)(C)[C@@H]3C(=O)O)c2ccccc2)C(=O)C1=O (single isomer, unassigned)
log10 of MIC: 0.20
//
compound: CC1(C)S[C@@H]2[C@H](NC(=O)C(c3ccccc3)S(=O)(=O)O)C(=O)N2[C@H]1C(=O)O (some centres unmarked) [Sodium Sulbenicillin, SodiumSulbenicillin, reference compound]
log10 of MIC: 1.10
//
compound: CC(=O)OCC1=C(C(=O)O)N2C(=O)[C@@H](NC(=O)[C@H](N)c3ccccc3)[C@H]2SC1 [Sodium Cephaloglycin, SodiumCephaloglycin, reference compound]
log10 of MIC: 0.50
//
compound: CCN1CCN(C(=O)NC(C(=O)NC2C(=O)N3C(C(=O)O)=C(COC(C)=O)CSC23)c2ccccc2)C(=O)C1=O (centres unmarked)
log10 of MIC: 0.50
//
compound: Cc1nnc(SCC2=C(C(=O)O)N3C(=O)[C@@H](NC(=O)Cn4cnnn4)[C@H]3SC2)s1 [Sodium Cephazolin, SodiumCephazolin, reference compound]
log10 of MIC: 0.19
//
compound: O=C(Cc1cccs1)N[C@@H]1C(=O)N2C(C(=O)[O-])=C(C[n+]3ccccc3)CS[C@H]12 [Cephalorizine, reference compound]
log10 of MIC: 0.50
//
compound: CCCCCCCCN1CCN(C(=O)N[C@@H](C(=O)N[C@@H]2C(=O)N3[C@@H]2SC(C)(C)[C@@H]3C(=O)O)c2ccccc2)CC1=O
log10 of MIC: 1.40

====

Tested on: Staphylococcus aureus
measurement description: MIC against clinical isolates
Type: cell-based
experimental setup: clinical isolate MS 8588; unit assumed
recorded metric: MIC (mg/L)

molecule: CC1(C)S[C@@H]2[C@H](NC(=O)C(c3ccccc3)S(=O)(=O)O)C(=O)N2[C@H]1C(=O)O (some centres unmarked) [Sodium Sulbenicillin, SodiumSulbenicillin, reference compound]
result unit: mg/L
observed result: 3.13

molecule: CCCCN1CCN(C(=O)N[C@@H](C(=O)N[C@@H]2C(=O)N3[C@@H]2SC(C)(C)[C@@H]3C(=O)O)c2ccccc2)C(=O)C1=O (single isomer, unassigned)
result unit: mg/L
observed result: 1.57

molecule: CC(=O)OCC1=C(C(=O)O)N2C(=O)[C@@H](NC(=O)[C@H](N)c3ccccc3)[C@H]2SC1 [Sodium Cephaloglycin, SodiumCephaloglycin, reference compound]
result unit: mg/L
observed result: 3.13

molecule: CN1CCN(C(=O)N[C@@H](C(=O)N[C@@H]2C(=O)N3C(C(=O)[O-])=C(C[n+]4ccccc4)CS[C@H]23)c2ccccc2)C(=O)C1=O
result unit: mg/L
observed result: 1.56

molecule: CCN1CCN(C(=O)N[C@@H](C(=O)N[C@@H]2C(=O)N3[C@@H]2SC(C)(C)[C@@H]3C(=O)O)c2ccccc2)C(=O)C1=O
result unit: mg/L
observed result: 3.13

====

Test system: Proteus vulgaris 3027
measurement description: MIC against standard strain, plate method
Assay type: cell-based
experimental setup: Proteus vulgaris 3027, standard strain; unit assumed
Reported MIC values are given for each entry in this list.

compound: CC1(C)SC2C(NC(=O)C(NC(=O)N3CCNC(=O)C3=O)c3ccccc3)C(=O)N2C1C(=O)O (stereo not drawn)
MIC: 3.13 µg/mL

compound: CN1CCN(C(=O)N[C@@H](C(=O)N[C@@H]2C(=O)N3C(C(=O)[O-])=C(C[n+]4ccccc4)CS[C@H]23)c2ccccc2)C(=O)C1=O
MIC: 1.57 µg/mL

compound: CC(=O)OCCN1CCN(C(=O)N[C@@H](C(=O)N[C@@H]2C(=O)N3[C@@H]2SC(C)(C)[C@@H]3C(=O)O)c2ccccc2)C(=O)C1=O (single isomer, unassigned)
MIC: < 1.57 µg/mL
